Every entry's value here was drawn from paper PMC12416549.

# system.name: T1, TNFR1 (Homo sapiens, UniProt P19438)
# T1 chain: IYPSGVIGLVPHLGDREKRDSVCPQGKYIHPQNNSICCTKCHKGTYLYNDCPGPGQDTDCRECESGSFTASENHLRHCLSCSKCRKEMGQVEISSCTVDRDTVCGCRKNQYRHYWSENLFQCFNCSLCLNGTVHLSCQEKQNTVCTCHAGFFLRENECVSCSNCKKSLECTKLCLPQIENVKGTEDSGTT
# method.summary: yeast display SC50
endpoint.name: apparent Kd (screen) (nM)
Answer with a number only, understood to be in nM.

Any idea what apparent Kd (screen) was measured for A94C (designed binder) MTLQELLREEALRRAEAEAFRYALELLAEKFPEQKEYLLDLAEEIESQIRSLSGVDVEDVRKFLDKEWAWVKELLAEHPAELAEVEAARAARLCELRAEVEAKVAA ? 0.718

Any idea what apparent Kd (screen) was measured for E16L (designed binder) MTLQELLREEALRRALAEAFRYALELLAEKFPEQKEYLLDLAEEIESQIRSLSGVDVEDVRKFLDKEWAWVKELLAEHPAELAEVEAARAARLAELRAEVEAKVAA ? 0.593

Any idea what apparent Kd (screen) was measured for H78E (designed binder) MTLQELLREEALRRAEAEAFRYALELLAEKFPEQKEYLLDLAEEIESQIRSLSGVDVEDVRKFLDKEWAWVKELLAEEPAELAEVEAARAARLAELRAEVEAKVAA ? 0.653

Any idea what apparent Kd (screen) was measured for T2E (designed binder) MELQELLREEALRRAEAEAFRYALELLAEKFPEQKEYLLDLAEEIESQIRSLSGVDVEDVRKFLDKEWAWVKELLAEHPAELAEVEAARAARLAELRAEVEAKVAA ? 2.73

Any idea what apparent Kd (screen) was measured for E36D (designed binder) MTLQELLREEALRRAEAEAFRYALELLAEKFPEQKDYLLDLAEEIESQIRSLSGVDVEDVRKFLDKEWAWVKELLAEHPAELAEVEAARAARLAELRAEVEAKVAA ? 0.49

Any idea what apparent Kd (screen) was measured for V85H (designed binder) MTLQELLREEALRRAEAEAFRYALELLAEKFPEQKEYLLDLAEEIESQIRSLSGVDVEDVRKFLDKEWAWVKELLAEHPAELAEHEAARAARLAELRAEVEAKVAA ? 1.05

Any idea what apparent Kd (screen) was measured for A80R (designed binder) MTLQELLREEALRRAEAEAFRYALELLAEKFPEQKEYLLDLAEEIESQIRSLSGVDVEDVRKFLDKEWAWVKELLAEHPRELAEVEAARAARLAELRAEVEAKVAA ? 0.593

Any idea what apparent Kd (screen) was measured for S47T (designed binder) MTLQELLREEALRRAEAEAFRYALELLAEKFPEQKEYLLDLAEEIETQIRSLSGVDVEDVRKFLDKEWAWVKELLAEHPAELAEVEAARAARLAELRAEVEAKVAA ? 0.653
